B1: USP39 (parent)
chain: FQGSMRIFTKKLPHPDLPAEEKEQ

variants of: B1; assay: protein stability index of a GFP-peptide fusion (GPS, HEK-293T) (PSI 1-6); higher = more stable; settings: c terminus: a fixed tail appended;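 also: lentivirally expressed fusions sorted by FACS into six bins by GFP to DsRed ratio, PSI derived from sequencing read proportions per bin multiplied by bin number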
Exercise: state measured protein stability index for each of the variants provided.
Lab note: record the figure alone, no unit after it.

Annotate the variant E20M with its measured protein stability index.
1.67

Annotate the variant M5N with its measured protein stability index.
2.15

Annotate the variant P15F with its measured protein stability index.
2.14

Annotate the variant H14N with its measured protein stability index.
1.94

Annotate the variant R6H with its measured protein stability index.
1.83

Annotate the variant E20G with its measured protein stability index.
1.59

Annotate the variant F1M with its measured protein stability index.
4.19

Annotate the variant D16H with its measured protein stability index.
2.12

Annotate the variant A19S with its measured protein stability index.
2.08

Annotate the variant Q24H with its measured protein stability index.
2.05

Annotate the variant M5F with its measured protein stability index.
1.89

Annotate the variant L17F with its measured protein stability index.
2.36

Annotate the variant K22I with its measured protein stability index.
1.94

Annotate the variant H14I with its measured protein stability index.
1.84

Annotate the variant M5G with its measured protein stability index.
1.73

Annotate the variant K22T with its measured protein stability index.
1.93

Annotate the variant P13F with its measured protein stability index.
1.99

Annotate the variant G3L with its measured protein stability index.
2.23

Annotate the variant E23H with its measured protein stability index.
2.18

Annotate the variant E21A with its measured protein stability index.
1.81

Annotate the variant G3T with its measured protein stability index.
3

Annotate the variant Q24V with its measured protein stability index.
1.52
